All values here come from patent US20240277658A1.

For each record, write down the corresponding Average (% positive control).
biological target: NLRP3 inflammasome (Mus musculus); construct: endogenous in cells; host or cells: primary mouse bone marrow-derived dendritic cells (BMDCs), LPS-primed; test: IL-1β release from LPS-primed BMDCs (ELISA) as readout of NLRP3 inflammasome activation; format: cell-based; details: IL-1β release; compound 50 μM; positive control nigericin 5 μM
Numbers only, in % positive control.

Batch of 8 compounds: report Average (% positive control) for each.
1. N#Cc1ccc(NC(=O)Nc2ccccc2)cc1
2. O=C(Nc1ccccc1)Nc1cccc([N+](=O)[O-])c1
3. O=C(NCc1nc(C2CC2)no1)Nc1cccc(F)c1
4. CS(=O)(=O)c1cc(NC(=O)Nc2ccccc2)ccc1Cl
5. O=C(Nc1ccccc1)Nc1ccc(NC2CCOCC2)cc1
6. COc1ccccc1NC(=O)NCc1nc(-c2ccc(C(F)(F)F)cc2)no1
7. CN1C(=O)c2ccc(NC(=O)Nc3ccccc3)cc2C1=O
8. O=C(Nc1ccccc1)Nc1ccc(N2CCCC2)cc1

Result ::
1.956
0.973
1.093
3.211
0.928
108.566
5.819
19.737

----------
Tested on: BMDCs
Assay: LDH release (lytic cell death, pyroptosis) from LPS-primed BMDCs
Format: cell-based, mouse
Details: LDH release; 80 μM; positive control EN22 20 μM
Experimental: This was tested in cell culture in several different in vitro assays classically used to investigate inflammasome activation. […] Lytic cell death was determined via LDH release. […] For classification of the activity of a given molecule, release of IL-1β was quantified as % of IL-1% of a respective control activator used for the experiment (highlighted in tables with bold letters). […]
For each record, write down the corresponding Average (% positive control).
Give bare numbers, in % positive control.

Observe how each entry below is paired with its result.
N#Cc1ccc(NC(=O)Nc2ccc3ncccc3c2)cc1 : 31.296
O=C(Nc1ccccc1)Nc1ccc2ncc(Br)cc2c1 : 68.244

Batch of 2 compounds: report Average (% positive control) for each.
1. COc1ccc(NC(=O)Nc2ccc3ncccc3c2)cc1
2. O=C(Nc1ccccc1)Nc1ccc2ncccc2n1

Result ::
[77.427, 30.084]

----------
For each record, write down the corresponding Average (% positive control).
target: NLRP3 inflammasome (Mus musculus, UniProt Q8R4B8); construct: endogenous in cells; host or cells: primary mouse bone marrow-derived dendritic cells (BMDCs), LPS-primed; experiment: IL-1β release from LPS-primed BMDCs (ELISA) as readout of NLRP3 inflammasome activation; assay type: cell-based; conditions: IL-1β; 37.5 μM; positive control EN22 18.75 μM
Sequence (Q8R4B8 whole entry): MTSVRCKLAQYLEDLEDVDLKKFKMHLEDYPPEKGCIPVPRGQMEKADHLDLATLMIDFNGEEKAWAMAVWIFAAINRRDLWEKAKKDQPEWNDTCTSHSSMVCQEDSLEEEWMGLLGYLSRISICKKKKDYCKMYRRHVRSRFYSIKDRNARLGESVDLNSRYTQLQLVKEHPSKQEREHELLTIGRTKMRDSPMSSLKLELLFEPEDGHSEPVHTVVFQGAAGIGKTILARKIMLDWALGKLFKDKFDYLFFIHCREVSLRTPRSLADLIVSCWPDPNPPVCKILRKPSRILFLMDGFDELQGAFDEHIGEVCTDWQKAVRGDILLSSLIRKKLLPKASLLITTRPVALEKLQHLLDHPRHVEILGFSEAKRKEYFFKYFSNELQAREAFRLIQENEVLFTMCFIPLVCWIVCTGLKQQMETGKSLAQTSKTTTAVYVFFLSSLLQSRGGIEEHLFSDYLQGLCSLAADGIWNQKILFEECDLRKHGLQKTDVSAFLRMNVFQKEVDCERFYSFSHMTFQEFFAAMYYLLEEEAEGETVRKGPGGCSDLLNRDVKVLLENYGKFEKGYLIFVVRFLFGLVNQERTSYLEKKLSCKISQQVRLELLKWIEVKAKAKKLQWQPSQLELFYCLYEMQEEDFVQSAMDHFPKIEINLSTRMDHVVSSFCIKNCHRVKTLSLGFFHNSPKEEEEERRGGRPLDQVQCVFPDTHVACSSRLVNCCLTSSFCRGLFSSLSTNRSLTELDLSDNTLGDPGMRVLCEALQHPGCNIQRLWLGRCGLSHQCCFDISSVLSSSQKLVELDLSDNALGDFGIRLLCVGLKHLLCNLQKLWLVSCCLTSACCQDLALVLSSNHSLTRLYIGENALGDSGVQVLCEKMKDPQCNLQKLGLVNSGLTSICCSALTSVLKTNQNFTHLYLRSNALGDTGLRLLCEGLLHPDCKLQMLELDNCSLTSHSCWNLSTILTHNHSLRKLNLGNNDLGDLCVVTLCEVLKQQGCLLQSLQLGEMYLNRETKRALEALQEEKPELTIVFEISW
One number for each entry, in % positive control.

Observe how each entry below is paired with its result.
O=C(Nc1cccc(Cl)c1)Nc1ccc([N+](=O)[O-])cc1Cl [TCMDC-143175] : 4.609
O=C(Nc1ccccc1Cl)Nc1ccc([N+](=O)[O-])cc1Cl [A.C2] : 5.712
Cc1c(F)cccc1CN1CCCC(Cc2nc(-c3ccc(NC(=O)Nc4ccccc4)cc3)no2)C1 (stereo not shown) [PM16] : 13.380

Query :: Answer with the recorded Average (% positive control) of COc1ccc(NC(=O)Nc2ccc(-c3noc(CC4CCCN(Cc5cccc(F)c5C)C4)n3)cc2)cc1 (stereo not shown) [PM07] only.
Result :: 25.211
